# tgt: T1, AMHR-II/Fc fusion protein (human, UniProt Q16671 18-149, limits assumed)
# T1 construct: also called AMHR-II recombinant receptor expressed in the form of fusion protein with a region Fc; recombinant target; not shown: Fc region
# method notes: SPR, BIAcore X100; ratio against the chimeric 12G4
endpoint name: KD chimeric/KD mutated
// keep it numeric: no unit symbol after the value

Worked cases, KD chimeric/KD mutated given:
binder | endpoint name | value measured
mutated humanized 12G4 antibody 3C-23K produced in YB2/0 (antibody, human IgG1, kappa, V domains shown, Chains without leader; also called 3C_23K YB2/0; 3C-23K-YB2/0) VH: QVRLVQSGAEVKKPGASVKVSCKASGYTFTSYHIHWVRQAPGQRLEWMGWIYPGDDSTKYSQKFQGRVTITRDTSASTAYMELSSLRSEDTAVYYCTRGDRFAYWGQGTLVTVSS VL: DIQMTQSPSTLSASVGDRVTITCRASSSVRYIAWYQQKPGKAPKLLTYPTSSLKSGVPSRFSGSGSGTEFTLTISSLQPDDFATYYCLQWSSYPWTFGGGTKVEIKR | KD chimeric/KD mutated | 10
mutated humanized 12G4 antibody 3C-23 produced in YB2/0 (antibody, human IgG1, kappa, V domains shown, Chains without leader; Mutations VH-Q3R, VL-I177T/S179P; also called 3C_23 YB2/0; R901 3C23) VH: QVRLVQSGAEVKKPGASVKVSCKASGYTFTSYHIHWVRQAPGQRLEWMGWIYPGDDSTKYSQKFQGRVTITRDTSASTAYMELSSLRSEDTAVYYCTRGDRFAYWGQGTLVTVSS VL: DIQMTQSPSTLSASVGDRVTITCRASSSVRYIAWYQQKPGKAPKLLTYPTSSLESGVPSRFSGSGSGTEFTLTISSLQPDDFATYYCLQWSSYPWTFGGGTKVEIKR | KD chimeric/KD mutated | 2.3

input: Indicate its recorded KD chimeric/KD mutated; the binder in question is mutated humanized 12G4 antibody 3C-23 produced in CHO (antibody, human IgG1, kappa, V domains shown, also called 3C_23 CHO) VH: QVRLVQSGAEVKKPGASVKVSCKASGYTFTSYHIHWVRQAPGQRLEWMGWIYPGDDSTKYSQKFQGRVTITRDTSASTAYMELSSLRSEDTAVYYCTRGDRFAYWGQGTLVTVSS VL: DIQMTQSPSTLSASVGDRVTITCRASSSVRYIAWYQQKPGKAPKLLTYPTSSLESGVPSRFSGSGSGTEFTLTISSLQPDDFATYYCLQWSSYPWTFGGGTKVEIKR
output: 2.5

Reference source for all entries: patent US20130136743A1
